B1: INTS3 (parent)
chain: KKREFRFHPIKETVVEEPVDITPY

variants of: B1; test: protein stability index of a GFP-peptide fusion (GPS, HEK-293T) (PSI 1-6); higher = more stable; settings: c terminus: a fixed tail appended;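 note: lentivirally expressed fusions sorted by FACS into six bins by GFP to DsRed ratio, PSI derived from sequencing read proportions per bin multiplied by bin number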
# label = 1 (yes) if protein stability index >= 2 else 0 (no)

# mutation annotation, assigned category
measured = [
    ("E4N", "0 (no)"),
]

Problem: Threshold query (protein stability index >= 2) on F7P
Solution: 1 (yes)

Problem: Identify whether the reported protein stability index of the following variant is 2 or greater: I21S
Solution: 0 (no)

Problem: Reported protein stability index reaches at least 2 for F7D ?
Solution: 1 (yes)

Problem: # bool: protein stability index of H8T >= 2
Solution: 1 (yes)

Problem: Threshold query (protein stability index >= 2) on I10P
Solution: 0 (no)

Problem: I'd appreciate it if you could say whether K11E has protein stability index at least equal to 2.
Solution: 1 (yes)

Problem: Is protein stability index at least 2? Consider E16Q
Solution: 0 (no)

Sourced from the supplement of paper PMC10567573
